Values from paper PMC9951844

# MEASUREMENT TARGET: SARS-CoV-2 Kappa (B.1.617.1) spike ECD (SARS-CoV-2 Kappa (B.1.617.1), strain)
ENDPOINT: binding result

{"BINDER": "YB13-221 (antibody, V domains shown) VH: EVQLVESGGGLVQPGGSLRLSCAASGFIVSSRYMSWVRQAPGKGLEWVSVIYSDGRSYYADSVKGRFIISRDNFKNALYLQMNSLRAEDTAVYYCARDSPYRTGWFLGQSDAFDIWGQGTMVTVSS VL: DIQMTQSPSTLSASVGDRVTITCRASQSISSWLAWYQQKPGKAPNLLIYKASSLESGVPSRFSASGSGTEFTLTISSLQPDDFATYYCQQYNSYPPSFGQGTKVEIK", "RECORDED VALUE": "binds"}
{"BINDER": "YB9-112 (antibody, V domains shown) VH: EVRLVESGGGLIQPGGSLRLSCAASGLIVSSNYMTWVRQAPGKGLEWVSVIYSGGSTFYADSVKGRFTISRDNSKNTLFLQMSSLRAEDTAIYYCARDLDYYGMDVWGQGTTVTVSS VL: DIQLTQSPSFLSASVGDRVTITCRASQGVASYLAWYQQKPGKAPKLLIYAASTLQSGVPSRFSGSGSGTEFTLTISSLQPEDFATYYCQHLNSYPPITFGQGTRLEIK", "RECORDED VALUE": "binds"}
{"BINDER": "YB12-195 (antibody, V domains shown) VH: EVQLVESGGGLIQPGGSLRLSCAASGFIVSSNYMNWVRQAPGKGLEWVSVIYSGGSTFYADSVKGRFTISRDNSKNTLYLQMNSLRAEDTAVYYCARDLQRDGMDVWGQGTTVTVSS VL: SYVLTQPPSVSVAPGKTARITCGGNNIGSKNVHWYQQKPGQAPVLVIYYDSDRPSGIPERFSGSNSGNTATLTVSRVEAGDEADYYCQLWDSSSDHVVFGGGTKLTVL", "RECORDED VALUE": "binds"}
{"BINDER": "YB13-291 (antibody, V domains shown) V domain 1: QITLKESGPTLVKPTQTLTLTCTFSGFSLNTAGVAVGWIRQPPGKAREWLALIYWDDDQRYSPSLESRLTITKDTSKNLVVLTMTNMDPVDTATYYCAHPRYFSDNSAYYWIWGQGTMVTVSS V domain 2: SYDLTQPPSVSVSPGQTATISCSGDALPKQYVYWYQQKPGQAPVLVIYKDSERPSGIPERFSGSNSGTTVTLTISGVQAEDEAEYYCQSADSSGFYVFGSGTQVTVL", "RECORDED VALUE": "binds"}
{"BINDER": "YB13-216 (antibody, V domains shown) VH: QVQLVESGGGVVQPGSSLRISCAASGFTFSSYGMHWVRQGPGKGLEWVAVIWDDGSGKHYAVSVKGRFTISRDNSKNTLYLQMNSLRVEDTAVYYCARDEGTTVTFFDYWGQGTLVTVSS VL: DIQMTQSPSSLSASVGDRITITCRASQSIRTYLNWYQQKPGKAPKLLIYTSSSLQSGVPSRFSGSGSGTDFTLTISSLQPEDFATYFCQQSYSTPPWTFGQGTKVEIK", "RECORDED VALUE": "binds"}
